Consider the following compounds; for each one, report its % EGT (w/v).
- test-description: Preventing trimethylamine odor by addition of compounds before heating ergothioneine with sodium hydroxide
- Type: physicochemical
- recorded-conditions: test sample 0.01%; 0.1N NaOH, boiled 10 minutes; HPLC

// solved cases for % EGT (w/v) follow
>  <compound>
OB(O)O

>  <% EGT (w/v)>
0.050 % (w/v)

$$$$
>  <compound>
O=S([O-])S(=O)(=O)[O-].[Na+].[Na+] [sodium metabisulfite]

>  <% EGT (w/v)>
0.044 % (w/v)

$$$$
>  <compound>
O=C1O[C@H]([C@@H](O)CO)C(O)=C1O

>  <% EGT (w/v)>
0.050 % (w/v)

$$$$
>  <compound>
O=C(O)CC(O)(CC(=O)O)C(=O)O

>  <% EGT (w/v)>
0.052 % (w/v)

$$$$
>  <compound>
CC(=O)O

>  <% EGT (w/v)>
0.050 % (w/v)

$$$$

Return reported % EGT (w/v) values for all items listed beneath this line.
1. Cl [Hydrochloric acid]
2. O=P(O)(O)O

### Response
0.050 % (w/v)
0.052 % (w/v)
